Molecular target: T1, 4H796-bH
T1 chain: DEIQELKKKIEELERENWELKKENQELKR
Test: two-hybrid library CCNG1;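 also: natural log of median RNA to DNA barcode read ratio; higher means stronger binding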
readout.name: interaction score

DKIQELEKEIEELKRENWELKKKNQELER [4H2143-bH] : -1.45
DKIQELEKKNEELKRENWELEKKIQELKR [4H2518-bH] : 0.388
DKNQELEKENEELKRKIWELEKEIQELER [4H3297-bH] : -0.673
DKIQELKKKIEELKRKNWELEKENQELER [4H2931-bH] : -0.865

[P] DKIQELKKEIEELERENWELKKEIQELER [4H2585-bH]
[Q] DKNQELEKKIEELERKIWELEKENQELKR [4H3364-bH]
Q. // max by interaction score over [ P , Q ] Pick one; state its label.
A. Q
(Q: -0.523, P: -0.9)
